Source listed as the supplement of paper PMC10065799.

Overview of reported phosphorylation enrichment across a group of sequences:
- System: Fer (mouse)
- TEST_METHOD_NOTES: phosphorylation enrichment, bacterial display (enrichment ratio); higher = better substrate or ligand; peptides without Tyr show the background
PROPERTY_LABEL: phosphorylation enrichment

SEQUENCE: CTTIHYNYMCN [TP53_Y234]
TEST_SYSTEM: Fer (mouse)
RECORDED_MEASUREMENT: 0.557

SEQUENCE: TFWKKYRTFWK [CCDC70_Y125]
TEST_SYSTEM: Fer (mouse)
RECORDED_MEASUREMENT: 0.409

SEQUENCE: GCKNRYDKGKP [THAP1_Y14_D17G]
TEST_SYSTEM: Fer (mouse)
RECORDED_MEASUREMENT: 0.4

SEQUENCE: ARLDEYIAIAK [RCOR3_Y46_K42R]
TEST_SYSTEM: Fer (mouse)
RECORDED_MEASUREMENT: 0.428

SEQUENCE: QDKDLYPCPGT [RLF_Y671_R668K]
TEST_SYSTEM: Fer (mouse)
RECORDED_MEASUREMENT: 0.562

SEQUENCE: EQKKFYNATKK [SCN5A_Y1495_M1498T_YF]
TEST_SYSTEM: Fer (mouse)
RECORDED_MEASUREMENT: 0.374

SEQUENCE: KNKNRYKNVLP [PTPN11_Y279_I282V]
TEST_SYSTEM: Fer (mouse)
RECORDED_MEASUREMENT: 0.414

SEQUENCE: TWSRSYRSDRL [CRYBB1_Y131_S129R]
TEST_SYSTEM: Fer (mouse)
RECORDED_MEASUREMENT: 0.452

SEQUENCE: AGARMYGVLPW [PLP1_Y207_D203G]
TEST_SYSTEM: Fer (mouse)
RECORDED_MEASUREMENT: 0.447

SEQUENCE: TRSYKCLLLSM [NF1_Y491_Y491C]
TEST_SYSTEM: Fer (mouse)
RECORDED_MEASUREMENT: 0.402

SEQUENCE: SVVVRYEPPEV [TP53_Y220_P219R]
TEST_SYSTEM: Fer (mouse);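 further: frequency after pTyr selection over input frequency; kinase dosed for 20-30% of maximal phosphorylation in three min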
RECORDED_MEASUREMENT: 0.466

SEQUENCE: IDPFIYTPFGS [CYP3A4_Y432_YF]
TEST_SYSTEM: Fer (mouse);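 further: frequency after pTyr selection over input frequency; kinase dosed for 20-30% of maximal phosphorylation in three min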
RECORDED_MEASUREMENT: 1.67

SEQUENCE: RSAGKDDVYLI [MECP2_Y120_Y120D]
TEST_SYSTEM: Fer (mouse);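 further: frequency after pTyr selection over input frequency; kinase dosed for 20-30% of maximal phosphorylation in three min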
RECORDED_MEASUREMENT: 0.521

SEQUENCE: YVPSFYHAFSG [ACTN4_Y265_S262P]
TEST_SYSTEM: Fer (mouse);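 further: 11-residue human phosphosite peptides and single-mutation variants displayed on the E. coli surface, counted by deep sequencing, each peptide's frequency after selection divided by its frequency in the unselected input library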;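 further: frequency after pTyr selection over input frequency; kinase dosed for 20-30% of maximal phosphorylation in three min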
RECORDED_MEASUREMENT: 0.407
